Measured X geometric mean by item
- testTarget: T1, human Claudin 3 (human, UniProt O15551 1-220)
- T1 construct: forced expression in DG44 or Ba/F3 cells, or endogenous on MCF7 cells; four-transmembrane tight junction protein; also called hCLDN3; hCLN3
- T1 sequence: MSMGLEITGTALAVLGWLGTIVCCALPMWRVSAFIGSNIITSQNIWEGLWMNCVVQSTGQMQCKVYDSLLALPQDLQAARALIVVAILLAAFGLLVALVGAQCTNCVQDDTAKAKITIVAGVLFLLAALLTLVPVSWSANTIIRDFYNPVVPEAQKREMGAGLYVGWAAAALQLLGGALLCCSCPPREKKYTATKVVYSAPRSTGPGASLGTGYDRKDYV
- procedureText: flow cytometry, hCLDN3/DG44 cells, 1 ug/mL antibody
recordedEndpoint: X geometric mean

{"binder": "CDN16 (antibody, mouse IgG2b, kappa, V domains shown, mouse monoclonal, IgG2b/IgK) VH: EVQLQQSGPELVKPGASVKMSCKASGYTFTDYYMNWVKQSHGKSLEWIGRVNPSNGGTSYNQKFKGKATLTVDKSLSTAYMQLNSLTSEDSAVYYCARGLAYYSNSFVYWGQGTLVTVSA VL: KIVLTQSPASLAVSLRQRATISCRASESVDSYGNSFMHWYQQKPGQPPKLLIYRASNLESGVPARFSGSGSRTDFTLTIDPVEADDAATYYCQQNNEDPWTFGGGTKLEIKR", "experimentalResult": 928}
{"binder": "CDN28 (antibody, mouse IgG1, kappa, V domains shown, mouse monoclonal, IgG1/IgK) VH: EVQLQQSGPELVKPGASVKISCKASGYSFTGYFMNWVKQSHGKSLEWLGRINPYNGDTFYNQKFKGKATLTVDKSSNTAHMELRSLTSEDSAVYYCARGDGYYVTSLAYWGQGTLVTVSA VL: NIVMTQSPKSMSMSVGERVTLSCKASENVVSYVSWFQQKPEQSPKLLIYGASNRYTGVPDRFTGSGSATDFTLTISSVQAEDLADYYCGQSYSYPLTFGAGTKLELKR", "experimentalResult": 1450}
{"binder": "CDN04 (antibody, mouse IgG1, kappa, V domains shown, mouse monoclonal, IgG1/IgK; also called CDN4) VH: EVQLQQSGPELVKPGASMKISCKASGYSFTGYTMNWMKQGHGKNLEWIGLINPYNGGTSYNQKFKDKATLTLDKSSSSAYMELLSLTSEDSAVYYCARGSYGSSYFDYWGQGTTLTVSS VL: DIVMSQSPSSLAVSVGEKVTMSCKSSQSLLYGSNQKNYLAWYQQKPGQSPKLLIYWASTRESGVPDRFTGSGSGTDFTLTISSVKAEDLAVYYCQQYYNFPYTFGGGTKLEIKR", "experimentalResult": 180}
{"binder": "CDN38 (antibody, V domains shown) VH: EVQLQQSGPELVKPGASVKMSCKASGYSFTGYFMNWVKQSHGKSLEWIGRINPYNGDTFYNQKFKGKATLTVDKSSSTAHMELRSLTSEDSALYYCARSGNYVMDYWGQGTSVTVSS VL: DIVLTQSPASLAVSLGQSVTISCRASESVEYYGTSLMQWYQQKPGQPPKLLIYGASNVESGVPARFSGSGSGTDFSLNIHPVEEDDIAMYFCQQSRKVPWTFGGGTKLEIKR", "experimentalResult": 215}
{"binder": "CDN35 (antibody, V domains shown, mouse monoclonal, IgG2a/IgK) VH: EVQLQQSGPELVKPGASVKMSCKASGYTFTDYYMNWVKQSHGKSLEWIGRVNPSNGGTSYNQKFKGKATLTVDKSLSTAYMQLNSLTSEDSAVYYCARGLAYYSNSFTYWGQGTLVTVSA VL: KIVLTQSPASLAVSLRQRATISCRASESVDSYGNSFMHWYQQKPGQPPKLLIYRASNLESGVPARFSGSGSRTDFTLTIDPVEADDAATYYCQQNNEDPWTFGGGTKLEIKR", "experimentalResult": 869}
{"binder": "CDN27 (antibody, V domains shown, mouse monoclonal, IgG2a/IgK) VH: EVQLQQSGPELVKPGASVKISCKASGYSFTGYFMNWVKQSHGKSLEWIGRINPYNGDTFYNQKFKGKATLTVDKSSSTAHMELRSLTSEDSAVYYCARSGDWYFDVWGAGTTVTVSS VL: DIVLTQSPASLAVSLGQRATISCRASKSVSTSSYSYMHWYQQKPGQPPKLLIKFASYLESGVPARFSGSGSGTDFTLNIHPVEEEDAATYYCQHSREFPRTFGGGTKLEIKR", "experimentalResult": 1790}
